- Tested on: KYSE-50 (Esophageal Squamous Cell Carcinoma)
- assay-summary: Bliss excess, mean over the matrix (fraction); higher = more synergy;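 further: after 72 h of two-drug dosing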
Returns one of T or F; T when Bliss excess is >= -0.04.

Query string: Evaluate CC1(C)CCC(CN2CCN(c3ccc(C(=O)NS(=O)(=O)c4ccc(NCC5CCOCC5)c([N+](=O)[O-])c4)c(Oc4cnc5[nH]ccc5c4)c3)CC2)=C(c2ccc(Cl)cc2)C1 [Venetoclax] + CCN(CCO)CCCOc1ccc2c(Nc3cc(CC(=O)Nc4cccc(F)c4)[nH]n3)ncnc2c1 [AZD2811] (first compound max 1 µM, 7x7, partner max 1 µM) : Bliss excess at minimum -0.04?
Result string: T

Query string: Evaluate CN(CCO)CC[C@H](CSc1ccccc1)Nc1ccc(S(=O)(=O)NC(=O)c2ccc(N3CCC([C@@H](O)c4ccccc4-c4ccc(Cl)cc4)CC3)cc2)cc1S(=O)(=O)C(F)(F)F [AZD4320] + C[C@@H]1COCCN1C2=NC(=NC(=C2)C3(CC3)[S@](=N)(=O)C)C4=C5C=CNC5=NC=C4 [AZD6738] (first compound max 1 µM, 7x7, partner max 10 µM) : Bliss excess at minimum -0.04?
Result string: F

Query string: Evaluate NC1(C(=O)N[C@@H](CCO)c2ccc(Cl)cc2)CCN(c2ncnc3[nH]ccc23)CC1 [Capivasertib] + Cn1cnc2c(F)c(Nc3ccc(Br)cc3Cl)c(C(=O)NOCCO)cc21 [Selumetinib] (first compound max 10 µM, 7x7, partner max 10 µM) : Bliss excess at minimum -0.04?
Result string: T

Query string: Evaluate Cc1cc2ncnn2cc1Nc1ncc2c(n1)n(C1CCOCC1)c(=O)n2C [AZD7648] + C[C@@H]1COCCN1C2=NC(=NC(=C2)C3(CC3)[S@](=N)(=O)C)C4=C5C=CNC5=NC=C4 [AZD6738] (first compound max 10 µM, 7x7, partner max 10 µM) : Bliss excess at minimum -0.04?
Result string: T

Query string: Evaluate Cc1nc(Nc2ncc(C(=O)Nc3c(C)cccc3Cl)s2)cc(N2CCN(CCO)CC2)n1 [Dasatinib] + CC(=O)Nc1cccc(-n2c(=O)n(C3CC3)c(=O)c3c(Nc4ccc(I)cc4F)n(C)c(=O)c(C)c32)c1 [Trametinib] (first compound max 2 µM, 7x7, partner max 1 µM) : Bliss excess at minimum -0.04?
Result string: T

====

- Tested on: JHH-7 (Hepatocellular Carcinoma)
- assay-summary: Bliss excess, mean over the matrix (fraction); higher = more synergy
Can you tell me Bliss excess for the items I'm about to list?

Query string: For CC1(C)CCC(CN2CCN(c3ccc(C(=O)NS(=O)(=O)c4ccc(NCC5CCOCC5)c([N+](=O)[O-])c4)c(Oc4cnc5[nH]ccc5c4)c3)CC2)=C(c2ccc(Cl)cc2)C1 [Venetoclax] + COc1cc(Nc2ncc3c(n2)-c2ccc(Cl)cc2C(c2c(F)cccc2OC)=NC3)ccc1C(=O)O [Alisertib] (first compound max 1 µM, 7x7, partner max 10 µM) , what is its reported Bliss excess?
Result string: -0.0134

Query string: For COc1nnc2ccc(N3CCC(c4ccc(OCCN5CCN(C)C(=O)[C@H]5C)cc4)CC3)nn12 [AZD5153] + Cn1cnc2c(F)c(Nc3ccc(Br)cc3Cl)c(C(=O)NOCCO)cc21 [Selumetinib] (first compound max 1 µM, 7x7, partner max 10 µM) , what is its reported Bliss excess?
Result string: -0.0274

Query string: For C=CCn1c(=O)c2cnc(Nc3ccc(N4CCN(C)CC4)cc3)nc2n1-c1cccc(C(C)(C)O)n1 [AZD1775] + C[C@@H]1COCCN1C2=NC(=NC(=C2)C3(CC3)[S@](=N)(=O)C)C4=C5C=CNC5=NC=C4 [AZD6738] (first compound max 1 µM, partner max 10 µM) , what is its reported Bliss excess?
Result string: 0.0273
